- Test system: T2 cells
- assayInfo: Cytotoxicity test (51Cr release) of hdm2 81-88-specific CTL on peptide-loaded T2 target cells (peptide titration, peptide specificity)
- Assay type: cell-based, human
- particulars: CTL line CD8×A2K^b 81; E:T 10:1; 4-hour test; read-out: peptide concentration at half-maximal lytic activity
outcomeMeasure: EC50 (nM)
Numbers only, in nM.

Give the reported EC50 for LLGDLFGV [hdm2 81-88, oligopeptide, amino acid positions 81 to 88 of the hdm2 proto-oncoprotein] (system: T2 cells).
0.036

###

- assayTarget: HLA-A2.1 (Homo sapiens, UniProt P04439, D140Y/D185E/D98H/E176V/E277Q/G131W/G231S/I119V/I121R/I166T/I218V/L300P/L318F/N151K/N90K/P208A/P217A/Q86G/Q94H/R138H/R169H/T345S)
- assayInfo: Competition test: inhibition of A2.1 binding of peptide p53 264-272, read as p53-specific CTL lysis of loaded EA2 cells
- particulars: competitive binding test
outcomeMeasure: A2.1-binding activity (in words)

substance | recordedMeasurement
hdm2 80-88: synthetic hdm2 peptide, residues 80-88; contaminated with hdm2 81-88 (DLLGDLFGV; UniProt Q00987 80-88, looked up, fragment) | strongly binding
hdm2 33-41: synthetic hdm2 peptide, residues 33-41 (LLLKLLKSV; UniProt Q00987 33-41, looked up, fragment) | strongly binding
LLGDLFGV [hdm2 81-88, oligopeptide, amino acid positions 81 to 88 of the hdm2 proto-oncoprotein] | strongly binding
